- testedSystem: N-terminally GST-tagged DLK (catalytic domain amino acid 1-520) (Homo sapiens, UniProt Q12852)
- Construct: N-terminally GST-tagged DLK (catalytic domain amino acid 1-520)
- protocolDescription: DLK TR-FRET inhibition assay
- experimentalParameters: 5 nM GST-DLK, 40 nM HIS-MKK4 K131M substrate, 30 μM ATP, 60 minutes at ambient temperature
attributeMeasured: Ki (nM)

>>> observed("Nc1ncc(-c2cc([C@H]3[C@@H]4C[C@H](N5CCOCC5)C[C@@H]43)n(CC3CCC3)n2)cc1OC(F)F [compound 127]")
3.55
>>> observed("CC(C)n1nc(-c2cnc(N)c(OC(F)F)c2)cc1[C@H]1[C@@H]2C[C@@H](N3CC4(CN(C)CCO4)C3)C[C@@H]21 [compound 224]")
3.8
>>> observed("CC(C)n1nc(-c2cnc(N)c(OC(F)(F)F)c2)cc1[C@H]1[C@@H]2C[C@H](N3CC4(COC4)C3)C[C@@H]21 [compound 57]")
1.88
>>> observed("CC(C)n1nc(-c2cnc(N)c(OC(F)(F)F)c2)cc1[C@H]1[C@@H]2C[C@H](N3CCNCC3)C[C@@H]21 [compound 244]")
1.1
>>> observed("COC1CN([C@H]2C[C@@H]3[C@H](C2)[C@H]3c2cc(-c3cnc(N)c(C(F)(F)F)c3)nn2CC(F)F)C1 [compound 144]")
2.8
>>> observed("CC(C)n1nc(-c2cnc(N)c(C(F)(F)F)c2)cc1[C@H]1[C@@H]2C[C@H](N)C[C@@H]21 [compound 269]")
4.1
>>> observed("CC(C)n1nc(-c2cnc(N)c(OC(F)F)c2)cc1[C@H]1[C@@H]2C[C@H](N3CCO[C@H](C)C3)C[C@@H]21 [compound 77]")
1.3
>>> observed("CC(C)n1nc(-c2cnc(N)c(OC(F)F)c2)cc1[C@H]1[C@@H]2C[C@@H](N3CCN(C)C[C@@H]3C)C[C@@H]21 [compound 241]")
2
>>> observed("CC(C)n1nc(-c2cnc(N)c(C(F)(F)F)c2)cc1[C@H]1[C@@H]2C[C@H](N3CCOC[C@H]3C)C[C@@H]21 [compound 45]")
3.3
>>> observed("CC(C)n1nc(-c2cnc(N)c(C(F)(F)F)c2)cc1[C@H]1[C@@H]2C[C@@H](N(C)CCS(C)(=O)=O)C[C@@H]21 [compound 7]")
4.63
>>> observed("CC(C)n1nc(-c2cnc(N)c(OC(F)(F)F)c2)cc1[C@H]1[C@@H]2C[C@H](N3C[C@@H]4C[C@H]3CN4C)C[C@@H]21 [compound 201]")
1.3
>>> observed("CC(C)n1nc(-c2cnc(N)c(OC(F)F)c2)cc1C1[C@H]2CC(N3CCOCC(F)C3)C[C@@H]12 (single isomer, unassigned) [compound 173]")
4.5

* * *

Reported pKi by item:
- testedSystem: N-terminally GST-tagged DLK (catalytic domain amino acid 1-520) (Homo sapiens, UniProt Q12852)
- Construct: N-terminally GST-tagged DLK (catalytic domain amino acid 1-520); purchased Carna Bioscience
- Sequence (Q12852 1-520): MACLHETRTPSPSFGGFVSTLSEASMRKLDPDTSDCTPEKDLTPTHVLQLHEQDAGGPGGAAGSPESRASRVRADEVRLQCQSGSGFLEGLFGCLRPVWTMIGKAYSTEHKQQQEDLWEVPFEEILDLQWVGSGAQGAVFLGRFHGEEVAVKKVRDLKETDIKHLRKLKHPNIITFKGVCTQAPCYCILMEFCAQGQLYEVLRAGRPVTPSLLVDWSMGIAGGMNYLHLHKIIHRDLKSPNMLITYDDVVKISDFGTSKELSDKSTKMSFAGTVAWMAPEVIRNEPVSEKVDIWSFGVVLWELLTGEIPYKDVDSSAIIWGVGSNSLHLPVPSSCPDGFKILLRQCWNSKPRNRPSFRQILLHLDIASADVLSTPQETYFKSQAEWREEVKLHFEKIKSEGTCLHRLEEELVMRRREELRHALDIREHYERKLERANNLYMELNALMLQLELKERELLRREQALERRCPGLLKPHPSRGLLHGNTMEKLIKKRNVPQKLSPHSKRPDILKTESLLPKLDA
- protocolDescription: DLK TR-FRET inhibition assay
- Type: biochemical
- experimentalParameters: 5 nM GST-DLK, 40 nM HIS-MKK4 K131M substrate, 30 μM ATP, 60 minutes at ambient temperature
pKi: −log10 of the molar value.
attributeMeasured: pKi

>>> observed("Nc1ncc(-c2cc([C@H]3[C@@H]4C[C@@H](N5CCOCC5)C[C@@H]43)n(CC3CC3)n2)cc1OC(F)(F)F")
8.34
>>> observed("CC(C)n1nc(-c2cnc(N)c(C(F)(F)F)c2)cc1[C@@H]1[C@H]2CC[C@@H](N3CCOCC3)[C@H]21 (single isomer, unassigned) [compound 139]")
7.18
>>> observed("CC(C)n1nc(-c2cnc(N)c(OC(F)F)c2)cc1[C@H]1[C@@H]2C[C@H](N3CCCN(C)CC3)C[C@@H]21")
8.82
>>> observed("CC(C)n1nc(-c2cnc(N)c(C(F)(F)F)c2)cc1C1[C@H]2CC(N3CCOCC3)C[C@@H]12 (stereo partly drawn)")
8.66
>>> observed("CO[C@@H]1CCN([C@H]2C[C@@H]3[C@H](C2)[C@H]3c2cc(-c3cnc(N)c(OC(F)F)c3)nn2C(C)C)C1")
8.80
>>> observed("CC(C)n1nc(-c2cnc(N)c(C(F)(F)F)c2)cc1[C@H]1[C@@H]2C[C@H](N3CC(F)(F)C3)C[C@@H]21")
8.11

* * *

Reported Ki by item:
- testedSystem: N-terminally GST-tagged DLK (catalytic domain amino acid 1-520) (Homo sapiens, UniProt Q12852)
- Construct: N-terminally GST-tagged DLK (catalytic domain amino acid 1-520)
- protocolDescription: DLK TR-FRET inhibition assay
- experimentalParameters: 5 nM GST-DLK, 40 nM HIS-MKK4 K131M substrate, 30 μM ATP, 60 minutes at ambient temperature
attributeMeasured: Ki (nM)

>>> observed("CC(C)n1nc(-c2cnc(N)c(OC(F)F)c2)cc1[C@H]1[C@@H]2C[C@H](NCC(F)(F)F)C[C@@H]21")
6.91
>>> observed("CC(C)n1nc(-c2cnc(N)c(OC(F)F)c2)cc1[C@H]1[C@@H]2C[C@H](N3CCN(C)C[C@@H]3C)C[C@@H]21")
1.6
>>> observed("CC(C)n1nc(-c2cnc(N)c(OC(F)F)c2)cc1[C@H]1[C@@H]2C[C@@H](N3C[C@@H](F)[C@@H](F)C3)C[C@@H]21")
6.64
>>> observed("CC(C)n1nc(-c2cnc(N)c(OC(F)F)c2)cc1[C@H]1[C@@H]2C[C@@H](N3CCN4CCCC4C3)C[C@@H]21 (single isomer, unassigned) [compound 259]")
0.7
>>> observed("CC(C)n1nc(-c2cnc(N)c(OC(F)F)c2)cc1C1[C@H]2CC(N3CCOCC(F)C3)C[C@@H]12 (single isomer, unassigned) [compound 172]")
4.2
>>> observed("CC(C)n1nc(-c2cnc(N)c(SC(F)(F)F)c2)cc1[C@H]1[C@@H]2C[C@@H](N3CCOCC3)C[C@@H]21")
2.13

* * *

- testedSystem: N-terminally GST-tagged DLK (catalytic domain amino acid 1-520) (Homo sapiens)
- Construct: N-terminally GST-tagged DLK (catalytic domain amino acid 1-520)
- protocolDescription: DLK TR-FRET inhibition assay
- experimentalParameters: 5 nM GST-DLK, 40 nM HIS-MKK4 K131M substrate, 30 μM ATP, 60 minutes at ambient temperature
# if measured Ki < 3 nM: 1  # else: 0

>>> group("CC(C)n1nc(-c2cnc(N)c(OC(F)F)c2)cc1[C@H]1[C@@H]2C[C@H](N3C[C@@H]4C[C@H]3CN4C)C[C@@H]21")
1
>>> group("CC(C)n1nc(-c2cnc(N)c(C(F)(F)F)c2)cc1[C@H]1[C@@H]2C[C@@]3(CCN3CC(F)F)C[C@@H]21")
0
>>> group("CC(C)n1nc(-c2cnc(N)c(OC(F)F)c2)cc1[C@H]1[C@@H]2C[C@H](O)C[C@@H]21")
0
>>> group("CC(C)n1nc(-c2cnc(N)c(C(F)(F)F)c2)cc1[C@H]1[C@@H]2C[C@H](N3C[C@@H]4C[C@H]3CO4)C[C@@H]21")
0
>>> group("CC(C)n1nc(-c2cnc(N)c(C(F)(F)F)c2)cc1[C@H]1[C@@H]2C[C@@H](OC3COC3)C[C@@H]21")
0
>>> group("CC(C)n1nc(-c2cnc(N)c(OC(F)F)c2)cc1[C@H]1[C@@H]2C[C@@H](N3CC[C@H](F)C3)C[C@@H]21")
0
>>> group("CC(C)n1nc(-c2cnc(N)c(OC(F)F)c2)cc1[C@H]1[C@@H]2C[C@H](N3CCOC[C@@H]3C)C[C@@H]21")
1
>>> group("CC(C)n1nc(-c2cnc(N)c(OC(F)F)c2)cc1[C@H]1[C@@H]2C[C@@H](N3CCN4CCCC4C3)C[C@@H]21 (single isomer, unassigned) [compound 258]")
1
>>> group("CC(C)n1nc(-c2cnc(N)c(C(F)(F)F)c2)cc1[C@H]1[C@@H]2CC3(C[C@@H]21)CN(C)C(=O)CO3 (stereo partly shown)")
0
>>> group("CC(C)n1nc(-c2cnc(N)c(OC(F)(F)F)c2)cc1[C@H]1[C@@H]2C[C@H](N3CCO[C@@H](C)C3)C[C@@H]21")
1
>>> group("CC(C)n1nc(-c2cnc(N)c(C(F)(F)F)c2)cc1[C@H]1[C@@H]2C[C@H](N3C[C@H]4C[C@@H]3CO4)C[C@@H]21")
0
>>> group("CC(C)n1nc(-c2cnc(N)c(OC(F)F)c2)cc1[C@H]1[C@@H]2C[C@H]3CN(C)C[C@H]3[C@@H]21 (racemic)")
1
>>> group("CC(C)n1nc(-c2cnc(N)c(C(F)(F)F)c2)cc1[C@H]1[C@@H]2C[C@H](N3CCN(C)CC3)C[C@@H]21")
1
>>> group("CC(C)n1nc(-c2cnc(N)c(OC(F)F)c2)cc1[C@H]1[C@@H]2C[C@@H](N3CCN4CCCC4C3)C[C@@H]21 (stereo partly shown) [compound 88]")
1
>>> group("CC(C)n1nc(-c2cnc(N)c(OC(F)F)c2)cc1[C@H]1[C@@H]2C[C@H](N3C[C@@H](F)[C@@H](F)C3)C[C@@H]21")
0
>>> group("CC(C)n1nc(-c2cnc(N)c(C(F)(F)F)c2)cc1[C@H]1[C@@H]2C[C@H](NCC(F)F)C[C@@H]21")
0
>>> group("CC(C)n1nc(-c2cnc(N)c(CC(F)(F)F)c2)cc1[C@H]1[C@@H]2C[C@@H](N3CCOCC3)C[C@@H]21")
0
>>> group("CC(C)n1nc(-c2cnc(N)c(OC(F)(F)F)c2)cc1[C@H]1[C@@H]2C[C@@H](N3C[C@@H]4C[C@H]3CO4)C[C@@H]21")
0
>>> group("COCCO[C@H]1C[C@@H]2[C@H](C1)[C@H]2c1cc(-c2cnc(N)c(C(F)(F)F)c2)nn1C(C)C")
0
>>> group("CC(C)n1nc(-c2cnc(N)c(OC(F)F)c2)cc1[C@H]1[C@@H]2C[C@@H](N3CCCOCC3)C[C@@H]21")
1
>>> group("CC(C)n1nc(-c2cnc(N)c(OC(F)F)c2)cc1[C@H]1[C@@H]2C[C@@H](NCC(F)(F)F)C[C@@H]21")
0
>>> group("CC(C)n1nc(-c2cnc(N)c(OC(F)(F)F)c2)cc1[C@H]1[C@@H]2C[C@@H](N3CCOC[C@H]3C)C[C@@H]21")
1
>>> group("CCN1CCN([C@H]2C[C@@H]3[C@H](C2)[C@H]3c2cc(-c3cnc(N)c(OC(F)(F)F)c3)nn2C(C)C)CC1")
1
